# abundance fitness listing for each entry below
B1: E3 ubiquitin-protein ligase NEDD4, residues 836 to 881; numbered along this chain, P46934 (parent)
chain: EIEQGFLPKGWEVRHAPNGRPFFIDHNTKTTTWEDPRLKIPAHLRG

variants of: B1; test: abundance fitness (aPCA) (normalised: wild type 0, dead -1); higher = more abundant; growth selection in yeast, the domain comes from the species named; details: Homo sapiens

mutation: I40C
abundance fitness: -0.343
//
mutation: I40E
abundance fitness: -0.233
//
mutation: R37S
abundance fitness: -0.472
//
mutation: N27Q
abundance fitness: -0.364
//
mutation: H26K
abundance fitness: -0.342
//
mutation: E34A
abundance fitness: -0.182
//
mutation: L38Y
abundance fitness: -0.435
//
mutation: N27F
abundance fitness: -0.189
//
mutation: A42P
abundance fitness: -0.075
//
mutation: K29C
abundance fitness: -0.323
//
mutation: T28D
abundance fitness: -0.327
